system: VCAM-1; experiment: TNF-alpha-induced VCAM-1 RNA levels in aortic endothelial cells (Northern blot); format: cell-based, human; conditions: 5.0 mM; aortic endothelial cells; mean ± SD
Entries annotated with measured % INHIBITION of TNF-alpha-induced VCAM-1 RNA levels
observedProperty: % INHIBITION of TNF-alpha-induced VCAM-1 RNA levels (%)

>>> measurednumber("Cn1ccn(C)c1=S")
47
>>> measurednumber("Cc1ccc2[nH]c(S)nc2c1")
11
>>> measurednumber("Sc1nc2ccccc2[nH]1")
26
>>> measurednumber("Cn1c(-c2ccccc2)cnc1S")
99
>>> measurednumber("Cn1ccnc1S")
20

###

tested on: IRF-1; assay: TNF-alpha-induced IRF-1 RNA levels (Northern blot); assay type: cell-based, human; conditions: 100 :M; mean ± SD
observedProperty: % INIHIBITION of TNF-alpha-induced IRF-1 RNA levels (%)

>>> measurednumber("Cn1c(-c2ccccc2)cnc1S")
90
>>> measurednumber("Cn1ccnc1S")
0
>>> measurednumber("Cn1ccn(C)c1=S")
34
>>> measurednumber("Sc1ncc[nH]1")
0

###

Test system: IRF-1
Test: TNF-alpha-induced IRF-1 RNA levels (Northern blot)
Format: cell-based, human
Settings: 5 mM; mean ± SD
Method: Cell culture and treatment of HAEC: Human aortic endothelial cells (HAEC; Cambrex Bio Science Walkersville, Inc., Walkersville, Md.) are cultured in M199 supplemented with 8% FBS, 100 μg/ml heparin, 10 ng/ml endothelial growth factor, 100 μg/ml hypothalamus extract, 2 mM L-glutamine, 1% non-essential amino acids, 100 units/ml penicillin and 100 μg/ml streptomycin. […]
observedProperty: % INIHIBITION of TNF-alpha-induced IRF-1 RNA levels (%)

>>> measurednumber("Sc1ncc[nH]1")
0
>>> measurednumber("Cn1ccnc1S")
27
>>> measurednumber("Cn1ccn(C)c1=S")
75
>>> measurednumber("Cn1c(-c2ccccc2)cnc1S")
95
